List of CC50 values.
- System: K-562
- ASSAY_OVERVIEW: SRB colorimetric cell growth inhibition assay, K-562
- Assay type: cell-based
- STUDY_CONDITIONS: Homo sapiens, K562, K-562; cell killing (cytotoxic effect); read-out: LC50 K-562

COMPOUND	CC50 / µM
COc1cc(-c2c3n(c4c(=O)oc5cc(OC(=O)[C@H](C)N)c(OC)cc5c24)CCc2c-3cc(OC)c(OC)c2OC(=O)[C@H](C)N)ccc1OC(=O)[C@H](C)N [Compound 96]	9.2
COc1cc2c(cc1O)oc(=O)c1c2c(-c2cccc([N+](=O)[O-])c2)c2c3cc(OC)c(O)cc3ccn21 [Compound 221]	20.1
COc1cc(-c2c3n(c4c(=O)oc5cc(OC(=O)[C@@H](N)Cc6ccccc6)c(OC)cc5c24)CCc2cc(OC(=O)[C@@H](N)Cc4ccccc4)c(OC)cc2-3)ccc1OC(=O)[C@@H](N)Cc1ccccc1 [Compound 115]	7.78
COc1cc(-c2c3n(c4c(=O)[nH]c5cc(O)c(OC)cc5c24)CCc2cc(O)c(OC)cc2-3)ccc1O [Compound 4]	4.44
COc1cc(-c2c3n(c4c(=O)oc5cc(O)c(OC)cc5c24)CCc2cc(O)c(OC)cc2-3)ccc1O [Compound 109]	19.9

The origin of these recorded values is patent US7396837B2.
